# Tested on: NCI-H1915
# assay.remarks: relative viability (nuclei count vs DMSO), 5 days (fraction); higher = more cells survive
# reported.conditions: first compound 0.3162 µM
Sorting guide: entries reporting relative viability beneath 0.7 go in the 1 (yes) pile, the rest go in the 0 (no) pile.

-- ask Strictly below 0.7 in relative viability? O=c1cc(N2CCOCC2)oc2c(-c3cccc4c3sc3ccccc34)cccc12 + O=C(CCCCCCC(=O)Nc1ccccc1)NO [Vorinostat] (partner 1 µM)
-- reply 1 (yes)

-- ask Could you please tell me whether relative viability recorded for O=c1cc(N2CCOCC2)oc2c(-c3cccc4c3sc3ccccc34)cccc12 + CC(=O)Nc1cccc(-n2c(=O)n(C3CC3)c(=O)c3c(Nc4ccc(I)cc4F)n(C)c(=O)c(C)c32)c1 [Trametinib] (partner 0.02 µM) is less than 0.7?
-- reply 1 (yes)

-- ask In the record for CCN(CC)CCCCNc1ncc2cc(-c3cc(OC)cc(OC)c3)c(NC(=O)NC(C)(C)C)nc2n1 + CCNC(=O)c1noc(-c2cc(C(C)C)c(O)cc2O)c1-c1ccc(CN2CCOCC2)cc1 [Luminespib] (partner 0.01 µM) , is relative viability less than 0.7?
-- reply 0 (no)

-- ask Hello, is relative viability of the following molecule strictly smaller than 0.7? O=c1cc(N2CCOCC2)oc2c(-c3cccc4c3sc3ccccc34)cccc12 + Cc1nc(NC(=O)N2CCC[C@H]2C(N)=O)sc1-c1ccnc(C(C)(C)C(F)(F)F)c1 [Alpelisib] (partner 2 µM)
-- reply 0 (no)

-- ask # TODO verify relative viability < 0.7 strictly for this molecule: CCN(CC)CCCCNc1ncc2cc(-c3cc(OC)cc(OC)c3)c(NC(=O)NC(C)(C)C)nc2n1 + Nc1ncn([C@H]2C[C@H](O)[C@@H](CO)O2)c(=O)n1 [Decitabine] (partner 2 µM)
-- reply 1 (yes)

---
-- ask In the record for CCN(CC)CCCCNc1ncc2cc(-c3cc(OC)cc(OC)c3)c(NC(=O)NC(C)(C)C)nc2n1 + COc1cccc2cc(-c3nc([C@H]4CC[C@H](C(=O)O)CC4)n4ncnc(N)c34)[nH]c12 [OSI-027] (partner 0.5 µM) , is relative viability less than 0.7?
-- reply 0 (no)

-- ask Given the entry CCN(CC)CCCCNc1ncc2cc(-c3cc(OC)cc(OC)c3)c(NC(=O)NC(C)(C)C)nc2n1 + Cc1nc(Nc2ncc(C(=O)Nc3c(C)cccc3Cl)s2)cc(N2CCN(CCO)CC2)n1 [Dasatinib] (partner 0.075 µM) , would its reported relative viability be below 0.7?
-- reply 1 (yes)

---

# Tested on: NCI-H1437
# assay.remarks: relative viability (nuclei count vs DMSO), 5 days (fraction); higher = more cells survive
# reported.conditions: first compound 0.01 µM
parameter: relative viability
Lab note: jot the number down without any unit.

-- ask GET /values?readout=relative viability&item= CCN(CC)CCCCNc1ncc2cc(-c3cc(OC)cc(OC)c3)c(NC(=O)NC(C)(C)C)nc2n1 + N=C(N)NC(=N)NCCc1ccccc1 [Phenformin] (partner 250 µM)
-- reply 0.29

-- ask # query: relative viability of entry CCN(CC)CCCCNc1ncc2cc(-c3cc(OC)cc(OC)c3)c(NC(=O)NC(C)(C)C)nc2n1 + CC(C)C[C@H](NC(=O)[C@H](Cc1ccccc1)NC(=O)c1cnccn1)B(O)O [Bortezomib] (partner 0.002 µM)
-- reply 0.536

-- ask Quick one: relative viability for CCN(CC)CCCCNc1ncc2cc(-c3cc(OC)cc(OC)c3)c(NC(=O)NC(C)(C)C)nc2n1 + Cc1nc(Nc2ncc(C(=O)Nc3c(C)cccc3Cl)s2)cc(N2CCN(CCO)CC2)n1 [Dasatinib] (partner 0.075 µM) ?
-- reply 0.366

-- ask I am curious: what relative viability value has been reported for CCN(CC)CCCCNc1ncc2cc(-c3cc(OC)cc(OC)c3)c(NC(=O)NC(C)(C)C)nc2n1 + Nc1ncn([C@H]2C[C@H](O)[C@@H](CO)O2)c(=O)n1 [Decitabine] (partner 2 µM) ?
-- reply 0.599

-- ask Could you tell me which relative viability is on file for O=c1cc(N2CCOCC2)oc2c(-c3cccc4c3sc3ccccc34)cccc12 + Cc1nc(Nc2ncc(C(=O)Nc3c(C)cccc3Cl)s2)cc(N2CCN(CCO)CC2)n1 [Dasatinib] (partner 0.075 µM) ?
-- reply 0.337

Others:
-- ask Which relative viability is listed for O=c1cc(N2CCOCC2)oc2c(-c3cccc4c3sc3ccccc34)cccc12 + C[C@@H](Oc1cc(-c2cnn(C3CCNCC3)c2)cnc1N)c1c(Cl)ccc(F)c1Cl [Crizotinib] (partner 1 µM) ?
-- reply 0.963

-- ask Fill in the blank: the reported relative viability of O=c1cc(N2CCOCC2)oc2c(-c3cccc4c3sc3ccccc34)cccc12 + CC1(C)CCC(c2ccc(Cl)cc2)=C(CN2CCN(c3ccc(C(=O)NS(=O)(=O)c4ccc(N[C@H](CCN5CCOCC5)CSc5ccccc5)c(S(=O)(=O)C(F)(F)F)c4)cc3)CC2)C1 [Navitoclax] (partner 0.5 µM) is ____.
-- reply 1.05

-- ask # query: relative viability of entry O=c1cc(N2CCOCC2)oc2c(-c3cccc4c3sc3ccccc34)cccc12 + Nc1nc2[nH]cc(CCc3ccc(C(=O)N[C@@H](CCC(=O)O)C(=O)O)cc3)c2c(=O)[nH]1 [Pemetrexed] (partner 0.2 µM)
-- reply 0.327

-- ask Fill blank: measured relative viability of the compound CCN(CC)CCCCNc1ncc2cc(-c3cc(OC)cc(OC)c3)c(NC(=O)NC(C)(C)C)nc2n1 + CCNC(=O)c1noc(-c2cc(C(C)C)c(O)cc2O)c1-c1ccc(CN2CCOCC2)cc1 [Luminespib] (partner 0.01 µM) is ____.
-- reply 1.18

---

# Tested on: NCI-H1792
# assay.remarks: relative viability (nuclei count vs DMSO), 5 days (fraction); higher = more cells survive
# reported.conditions: first compound 0.3162 µM
Criterion: relative viability strictly under 0.9. Met: yes. Not met: no.

Use these answered entries as a reference point.
-- ask Does this compound meet the criterion relative viability < 0.9? CCN(CC)CCCCNc1ncc2cc(-c3cc(OC)cc(OC)c3)c(NC(=O)NC(C)(C)C)nc2n1 + C[C@@H](Oc1cc(-c2cnn(C3CCNCC3)c2)cnc1N)c1c(Cl)ccc(F)c1Cl [Crizotinib] (partner 1 µM)
-- reply no

-- ask Does O=c1cc(N2CCOCC2)oc2c(-c3cccc4c3sc3ccccc34)cccc12 + C[C@]1(O)C[C@@H](c2nc(-c3ccc4ccc(-c5ccccc5)nc4c3)c3c(N)nccn32)C1 [Linsitinib] (partner 1 µM) have relative viability strictly under 0.9?
-- reply yes

-- ask Does this compound meet the criterion relative viability < 0.9? O=c1cc(N2CCOCC2)oc2c(-c3cccc4c3sc3ccccc34)cccc12 + Nc1ncn([C@H]2C[C@H](O)[C@@H](CO)O2)c(=O)n1 [Decitabine] (partner 2 µM)
-- reply yes

-- ask Find out if reported relative viability for CCN(CC)CCCCNc1ncc2cc(-c3cc(OC)cc(OC)c3)c(NC(=O)NC(C)(C)C)nc2n1 + CS(=O)(=O)CCNCc1ccc(-c2ccc3ncnc(Nc4ccc(OCc5cccc(F)c5)c(Cl)c4)c3c2)o1 [Lapatinib] (partner 2 µM) is less than 0.9
-- reply no

-- ask For this compound, is relative viability lower than 0.9? CCN(CC)CCCCNc1ncc2cc(-c3cc(OC)cc(OC)c3)c(NC(=O)NC(C)(C)C)nc2n1 + COc1cccc2cc(-c3nc([C@H]4CC[C@H](C(=O)O)CC4)n4ncnc(N)c34)[nH]c12 [OSI-027] (partner 0.5 µM)
-- reply yes

-- ask Please check: relative viability for CCN(CC)CCCCNc1ncc2cc(-c3cc(OC)cc(OC)c3)c(NC(=O)NC(C)(C)C)nc2n1 + Nc1nc2[nH]cc(CCc3ccc(C(=O)N[C@@H](CCC(=O)O)C(=O)O)cc3)c2c(=O)[nH]1 [Pemetrexed] (partner 0.2 µM) , strictly under 0.9 or not?
-- reply no

Then there is this compound:
-- ask Consider the compound CCN(CC)CCCCNc1ncc2cc(-c3cc(OC)cc(OC)c3)c(NC(=O)NC(C)(C)C)nc2n1 + Cc1nc(Nc2ncc(C(=O)Nc3c(C)cccc3Cl)s2)cc(N2CCN(CCO)CC2)n1 [Dasatinib] (partner 0.075 µM) . Is its relative viability strictly less than 0.9?
-- reply yes

---

# Test system: HCC-44
# assay.remarks: relative viability (nuclei count vs DMSO), 5 days (fraction); higher = more cells survive
# reported.conditions: first compound 2.53 µM
Decide using relative viability alone. Strictly below 1: YES. Equal to or above 1: NO.

Solved cases (3 shown):
-- ask Say whether its relative viability is strictly beneath 1. Entry: O=c1cc(-c2cccc3c2Sc2ccccc2S3)oc(N2CCOCC2)c1 + Cc1cc(Nc2cc(N3CCN(C)CC3)nc(Sc3ccc(NC(=O)C4CC4)cc3)n2)n[nH]1 [Tozasertib] (partner 0.1 µM)
-- reply YES

-- ask Consider O=c1cc(-c2cccc3c2Sc2ccccc2S3)oc(N2CCOCC2)c1 + CS(=O)(=O)CCNCc1ccc(-c2ccc3ncnc(Nc4ccc(OCc5cccc(F)c5)c(Cl)c4)c3c2)o1 [Lapatinib] (partner 2 µM) . Does its relative viability lie strictly below 1?
-- reply YES

-- ask Quick check: relative viability of COc1nc(C)cnc1NS(=O)(=O)c1cccnc1-c1ccc(-c2nnco2)cc1 [Zibotentan] + CC1(C)CCC(c2ccc(Cl)cc2)=C(CN2CCN(c3ccc(C(=O)NS(=O)(=O)c4ccc(N[C@H](CCN5CCOCC5)CSc5ccccc5)c(S(=O)(=O)C(F)(F)F)c4)cc3)CC2)C1 [Navitoclax] (partner 0.5 µM) under 1?
-- reply NO

Continuing:
-- ask Answer whether the compound O=c1cc(-c2cccc3c2Sc2ccccc2S3)oc(N2CCOCC2)c1 + C[C@@H](Oc1cc(-c2cnn(C3CCNCC3)c2)cnc1N)c1c(Cl)ccc(F)c1Cl [Crizotinib] (partner 1 µM) has relative viability strictly less than 1
-- reply YES

-- ask # check: relative viability < 1 for O=c1cc(-c2cccc3c2Sc2ccccc2S3)oc(N2CCOCC2)c1 + C[C@]1(O)C[C@@H](c2nc(-c3ccc4ccc(-c5ccccc5)nc4c3)c3c(N)nccn32)C1 [Linsitinib] (partner 1 µM)
-- reply YES

-- ask Dear colleague, could you confirm whether relative viability of COc1nc(C)cnc1NS(=O)(=O)c1cccnc1-c1ccc(-c2nnco2)cc1 [Zibotentan] + Cc1cc(Nc2cc(N3CCN(C)CC3)nc(Sc3ccc(NC(=O)C4CC4)cc3)n2)n[nH]1 [Tozasertib] (partner 0.1 µM) falls below 1? Thanks.
-- reply YES

-- ask Record O=c1cc(-c2cccc3c2Sc2ccccc2S3)oc(N2CCOCC2)c1 + COc1cccc2cc(-c3nc([C@H]4CC[C@H](C(=O)O)CC4)n4ncnc(N)c34)[nH]c12 [OSI-027] (partner 0.5 µM) : is its relative viability strictly below 1?
-- reply YES

-- ask Lab note: relative viability threshold 1. Does this compound come in strictly under it? O=c1cc(-c2cccc3c2Sc2ccccc2S3)oc(N2CCOCC2)c1 + CC(=O)c1c(C)c2cnc(Nc3ccc(N4CCNCC4)cn3)nc2n(C2CCCC2)c1=O [Palbociclib] (partner 0.5 µM)
-- reply YES

-- ask Is 1 strictly greater than the compound's reported relative viability? compound: O=c1cc(-c2cccc3c2Sc2ccccc2S3)oc(N2CCOCC2)c1 + CS(=O)(=O)N1CCN(Cc2cc3nc(-c4cccc5[nH]ncc45)nc(N4CCOCC4)c3s2)CC1 [Pictilisib] (partner 1 µM)
-- reply YES

-- ask Consider the compound COc1nc(C)cnc1NS(=O)(=O)c1cccnc1-c1ccc(-c2nnco2)cc1 [Zibotentan] + COc1cccc2cc(-c3nc([C@H]4CC[C@H](C(=O)O)CC4)n4ncnc(N)c34)[nH]c12 [OSI-027] (partner 0.5 µM) . Is its relative viability strictly less than 1?
-- reply YES

-- ask Given the entry COc1nc(C)cnc1NS(=O)(=O)c1cccnc1-c1ccc(-c2nnco2)cc1 [Zibotentan] + Nc1nc2[nH]cc(CCc3ccc(C(=O)N[C@@H](CCC(=O)O)C(=O)O)cc3)c2c(=O)[nH]1 [Pemetrexed] (partner 0.2 µM) , would its reported relative viability be below 1?
-- reply YES

-- ask Dear colleague, could you confirm whether relative viability of COc1nc(C)cnc1NS(=O)(=O)c1cccnc1-c1ccc(-c2nnco2)cc1 [Zibotentan] + NC(=O)Nc1cc(-c2cccc(F)c2)sc1C(=O)N[C@H]1CCCNC1 [AZD7762] (partner 0.2 µM) falls below 1? Thanks.
-- reply NO
